Data origin: PubChem BioAssay AID720598

system: HT-29 viability, CellTiter-Glo ATP luminescence, 8-48 h; experiment: HT-29 colorectal cell cytotoxicity over time, dose response, HRas target identification project, CellTiter-Glo, multiple timepoints, dry powder (AID 720598); settings: measured here: 48 h treatment
Kindly state AC50 for each of the entries shown.
Give bare numbers, in µM.

Example cases with answers are listed next.
{"Compound": "CC(C)(C)OC(=O)NCCOCCOCCOc1ccc(N(C(=O)CCl)C(C(=O)NCCc2ccccc2)c2cccs2)cc1Cl (stereo unspecified)", "Assay value": 0.287}
{"Compound": "COC(=O)c1ccc([C@@H]2c3[nH]c4ccccc4c3C[C@@H](C(=O)OC)N2C(=O)CCl)cc1", "Assay value": 0.0856}
{"Compound": "C#CCCCC(=O)NCCOCCOCCOc1ccc(N(C(=O)CCl)C(C(=O)NCCc2ccccc2)c2cccs2)cc1Cl (stereo unspecified)", "Assay value": 1.3}
{"Compound": "COc1ccc(N(C(=O)CCl)C(C(=O)NCCc2ccccc2)c2cccs2)cc1Cl (stereo unspecified)", "Assay value": 0.0561}

# evaluate next
Give AC50 for the following compound: Cc1onc(C(=O)N2CCN(C(c3ccc(Cl)cc3)c3ccc(Cl)cc3)CC2)c1[N+](=O)[O-]
0.544
